The measured values listed here are drawn from patent US8399486B2.

Molecular target: N-type calcium channel (NTCC) (Homo sapiens, UniProt Q00975)
Construct: endogenous in cells
Sequence (Q00975 whole entry): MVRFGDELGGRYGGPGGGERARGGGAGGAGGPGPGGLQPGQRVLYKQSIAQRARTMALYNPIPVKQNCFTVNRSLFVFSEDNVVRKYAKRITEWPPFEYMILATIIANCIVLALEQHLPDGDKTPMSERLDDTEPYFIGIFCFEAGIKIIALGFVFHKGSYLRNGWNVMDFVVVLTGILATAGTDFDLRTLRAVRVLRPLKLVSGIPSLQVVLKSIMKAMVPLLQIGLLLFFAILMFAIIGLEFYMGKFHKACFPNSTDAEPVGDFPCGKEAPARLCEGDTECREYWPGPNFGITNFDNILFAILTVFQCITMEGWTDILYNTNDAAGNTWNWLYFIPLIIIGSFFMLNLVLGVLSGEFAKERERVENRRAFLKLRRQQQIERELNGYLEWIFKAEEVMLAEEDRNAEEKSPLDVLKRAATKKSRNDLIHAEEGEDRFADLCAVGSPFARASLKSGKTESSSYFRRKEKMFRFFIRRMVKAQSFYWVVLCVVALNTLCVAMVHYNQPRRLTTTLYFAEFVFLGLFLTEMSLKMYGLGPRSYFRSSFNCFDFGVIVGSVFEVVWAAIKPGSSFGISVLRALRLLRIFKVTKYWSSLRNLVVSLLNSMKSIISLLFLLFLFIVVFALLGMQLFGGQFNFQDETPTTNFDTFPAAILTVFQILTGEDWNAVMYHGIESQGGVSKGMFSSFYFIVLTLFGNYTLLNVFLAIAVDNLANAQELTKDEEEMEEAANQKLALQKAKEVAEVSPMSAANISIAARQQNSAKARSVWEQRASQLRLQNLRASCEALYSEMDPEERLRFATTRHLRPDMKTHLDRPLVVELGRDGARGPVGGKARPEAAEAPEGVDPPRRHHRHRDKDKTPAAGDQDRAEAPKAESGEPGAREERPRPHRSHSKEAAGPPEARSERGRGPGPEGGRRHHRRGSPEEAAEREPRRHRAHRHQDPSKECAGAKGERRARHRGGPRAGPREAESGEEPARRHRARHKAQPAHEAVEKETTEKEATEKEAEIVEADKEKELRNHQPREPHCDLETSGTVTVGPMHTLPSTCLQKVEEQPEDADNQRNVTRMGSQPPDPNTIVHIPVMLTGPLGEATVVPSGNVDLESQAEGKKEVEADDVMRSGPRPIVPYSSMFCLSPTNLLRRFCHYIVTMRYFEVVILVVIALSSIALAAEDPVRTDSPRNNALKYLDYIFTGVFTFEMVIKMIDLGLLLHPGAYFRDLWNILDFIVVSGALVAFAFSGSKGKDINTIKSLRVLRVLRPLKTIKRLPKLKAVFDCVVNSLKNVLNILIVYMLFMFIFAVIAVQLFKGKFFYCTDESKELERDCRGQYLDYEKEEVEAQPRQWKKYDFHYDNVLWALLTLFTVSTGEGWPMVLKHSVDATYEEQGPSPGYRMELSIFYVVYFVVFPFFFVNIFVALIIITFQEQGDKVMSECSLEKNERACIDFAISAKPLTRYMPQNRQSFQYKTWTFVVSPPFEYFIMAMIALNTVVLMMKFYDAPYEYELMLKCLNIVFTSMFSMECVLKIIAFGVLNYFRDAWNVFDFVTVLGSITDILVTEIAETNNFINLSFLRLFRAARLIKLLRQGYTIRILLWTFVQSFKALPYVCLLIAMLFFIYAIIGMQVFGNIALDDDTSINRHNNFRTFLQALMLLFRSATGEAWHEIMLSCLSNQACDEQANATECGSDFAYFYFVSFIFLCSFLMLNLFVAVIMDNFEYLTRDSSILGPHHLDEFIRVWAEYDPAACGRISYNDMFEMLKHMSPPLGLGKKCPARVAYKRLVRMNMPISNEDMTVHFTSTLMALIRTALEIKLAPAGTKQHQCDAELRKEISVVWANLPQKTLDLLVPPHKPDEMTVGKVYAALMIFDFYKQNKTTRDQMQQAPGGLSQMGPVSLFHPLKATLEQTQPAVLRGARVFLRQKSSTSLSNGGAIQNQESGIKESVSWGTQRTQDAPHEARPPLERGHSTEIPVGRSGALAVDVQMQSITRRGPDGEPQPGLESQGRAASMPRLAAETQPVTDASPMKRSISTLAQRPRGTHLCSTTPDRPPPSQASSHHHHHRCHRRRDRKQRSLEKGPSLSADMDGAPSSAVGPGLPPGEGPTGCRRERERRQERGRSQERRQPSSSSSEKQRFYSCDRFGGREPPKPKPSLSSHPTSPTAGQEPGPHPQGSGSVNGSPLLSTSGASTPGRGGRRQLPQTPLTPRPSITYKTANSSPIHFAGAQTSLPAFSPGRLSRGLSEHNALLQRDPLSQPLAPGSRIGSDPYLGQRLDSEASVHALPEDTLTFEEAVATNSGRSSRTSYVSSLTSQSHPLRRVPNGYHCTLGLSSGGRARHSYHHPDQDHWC
Sequence (P54289 25-956 partner limits assumed): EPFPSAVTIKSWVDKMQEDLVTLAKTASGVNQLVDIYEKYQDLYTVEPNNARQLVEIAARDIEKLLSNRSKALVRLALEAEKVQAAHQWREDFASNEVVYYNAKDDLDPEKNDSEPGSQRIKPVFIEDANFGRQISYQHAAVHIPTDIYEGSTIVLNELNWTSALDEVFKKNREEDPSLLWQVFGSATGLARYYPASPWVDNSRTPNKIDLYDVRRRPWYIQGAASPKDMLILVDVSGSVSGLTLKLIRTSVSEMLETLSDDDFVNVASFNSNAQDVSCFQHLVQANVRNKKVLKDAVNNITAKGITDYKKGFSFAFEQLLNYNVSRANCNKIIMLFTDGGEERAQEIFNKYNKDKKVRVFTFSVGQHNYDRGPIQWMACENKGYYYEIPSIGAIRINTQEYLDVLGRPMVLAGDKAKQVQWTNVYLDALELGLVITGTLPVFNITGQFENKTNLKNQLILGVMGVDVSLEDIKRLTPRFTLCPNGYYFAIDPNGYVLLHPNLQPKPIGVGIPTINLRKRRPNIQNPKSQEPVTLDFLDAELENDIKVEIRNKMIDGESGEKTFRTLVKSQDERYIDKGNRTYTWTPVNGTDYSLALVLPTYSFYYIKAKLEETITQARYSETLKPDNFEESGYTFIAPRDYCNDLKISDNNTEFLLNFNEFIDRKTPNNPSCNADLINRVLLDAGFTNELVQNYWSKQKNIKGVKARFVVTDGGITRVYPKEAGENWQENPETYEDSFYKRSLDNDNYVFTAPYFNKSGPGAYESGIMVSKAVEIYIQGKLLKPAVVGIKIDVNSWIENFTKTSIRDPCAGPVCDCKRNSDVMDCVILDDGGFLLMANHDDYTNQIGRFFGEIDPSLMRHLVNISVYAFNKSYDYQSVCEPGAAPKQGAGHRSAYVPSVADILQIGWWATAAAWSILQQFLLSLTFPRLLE
Sequence (P54289 957-1103 partner limits assumed): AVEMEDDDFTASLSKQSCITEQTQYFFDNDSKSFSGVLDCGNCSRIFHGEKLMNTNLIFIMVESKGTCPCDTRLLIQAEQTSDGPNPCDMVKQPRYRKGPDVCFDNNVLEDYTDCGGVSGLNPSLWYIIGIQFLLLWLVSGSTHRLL
Sequence (P54284 whole entry partner): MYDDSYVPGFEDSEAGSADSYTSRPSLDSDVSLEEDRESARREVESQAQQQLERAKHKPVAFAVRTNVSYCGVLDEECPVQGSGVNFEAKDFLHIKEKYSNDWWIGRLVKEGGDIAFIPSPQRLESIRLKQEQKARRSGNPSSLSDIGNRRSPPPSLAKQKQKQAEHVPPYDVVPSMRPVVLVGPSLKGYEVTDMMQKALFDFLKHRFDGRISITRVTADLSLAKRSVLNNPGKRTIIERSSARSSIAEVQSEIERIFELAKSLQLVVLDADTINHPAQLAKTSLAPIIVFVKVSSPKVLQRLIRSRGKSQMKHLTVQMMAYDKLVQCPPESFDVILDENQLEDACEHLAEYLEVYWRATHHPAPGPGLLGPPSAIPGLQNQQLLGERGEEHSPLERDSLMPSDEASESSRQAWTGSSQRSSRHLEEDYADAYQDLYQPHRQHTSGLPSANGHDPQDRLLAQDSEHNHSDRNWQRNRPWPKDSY
Test: FLIPR calcium mobilization assay for N-type calcium channel
Conditions: calcium mobilization in vitro assay, differentiated IMR32 cells, 90 mM KCl, 5 μM nitrendipine
Threshold check on IC50: strictly below 800 nM is T; on or above 800 nM is F.

| compound | group.label |
| --- | --- |
| O=C(CNC1CCN(S(=O)(=O)c2cccc(C(F)(F)F)c2)CC1)Nc1ccc(F)cc1 | T |
| O=C(CC(=O)NC1CCN(S(=O)(=O)c2cccc(C(F)(F)F)c2)CC1)Nc1ccc(F)cc1F | F |
| O=C(CNC1CCN(S(=O)(=O)c2cccc(C(F)(F)F)c2)C1)Nc1ccc(F)cc1 (centres unmarked) | T |
| O=C(CNC1CCN(S(=O)(=O)c2cccc(C(F)(F)F)c2)CC1)Nc1cc(C(F)(F)F)cc(C(F)(F)F)c1 | T |

----------
Molecular target: L-type calcium channel (LTCC) (Rattus norvegicus, UniProt P22002)
Construct: expressed in transfected cells; pcDNA6.2DEST α1c, pcDNA3.2DEST β1, pcDNA3.1-Zeo α2δ)
Assay: FLIPR calcium mobilization assay for L-type calcium channel
Assay type: cell-based
Conditions: calcium mobilization in vitro assay, HEK293 cells expressing recombinant rat LTCC subunits (α1c, α2δ, β1), 90 mM KCl

| compound | tested.target | relation.qualifier | IC50 (µM) |
| --- | --- | --- | --- |
| O=C(CNC1CCN(S(=O)(=O)c2cccc(C(F)(F)F)c2)CC1)Nc1cc(C(F)(F)F)cc(C(F)(F)F)c1 | L-type calcium channel (LTCC) (Rattus norvegicus, UniProt P22002) | > | 20 |
| O=C(CN(C1CC1)C1CCN(S(=O)(=O)c2cccc(C(F)(F)F)c2)CC1)Nc1ccc(F)cc1 | L-type calcium channel (LTCC) (Rattus norvegicus, UniProt P22002) | = | 9.33 |
| O=C(CNC1CCN(S(=O)(=O)c2cccc(C(F)(F)F)c2)C1)Nc1ccc(F)cc1 (stereo not shown) | L-type calcium channel (LTCC) (Rattus norvegicus, UniProt P22002) | = | 5.98 |
| O=C(CNC1CCN(S(=O)(=O)c2cccc(C(F)(F)F)c2)CC1)Nc1ccc(F)cc1 | L-type calcium channel (LTCC) (Rattus norvegicus, UniProt P22002) | > | 20 |
